Tested on: Candida albicans, strain B311
test_method_notes: Antifungal susceptibility testing, microdilution broth, pH 5.4/30° C./YNB
Type: cell-based
test_context: B311, 24 h, pH 5.4, read-out: ACTIVITY (EC50) C.alb (B311)
pEC50: −log10 of the molar value.
reported_property: pEC50

>>> value_observed("Cc1nccn1CCCCc1ccc(CC(=O)N[C@@H](CO)C(=O)N[C@@H](CCCCN)C(=O)N[C@@H](CC2CCCCC2)C(=O)O)cc1 [Example 2, bis-trifluoroacetate]")
4.46

* * *

Reported pIC50 values are given for each entry in this list.
measured_on: Candida albicans NMT (Candida albicans)
Construct: made in house; host or cells: E. coli
Sequence (P30418 whole entry): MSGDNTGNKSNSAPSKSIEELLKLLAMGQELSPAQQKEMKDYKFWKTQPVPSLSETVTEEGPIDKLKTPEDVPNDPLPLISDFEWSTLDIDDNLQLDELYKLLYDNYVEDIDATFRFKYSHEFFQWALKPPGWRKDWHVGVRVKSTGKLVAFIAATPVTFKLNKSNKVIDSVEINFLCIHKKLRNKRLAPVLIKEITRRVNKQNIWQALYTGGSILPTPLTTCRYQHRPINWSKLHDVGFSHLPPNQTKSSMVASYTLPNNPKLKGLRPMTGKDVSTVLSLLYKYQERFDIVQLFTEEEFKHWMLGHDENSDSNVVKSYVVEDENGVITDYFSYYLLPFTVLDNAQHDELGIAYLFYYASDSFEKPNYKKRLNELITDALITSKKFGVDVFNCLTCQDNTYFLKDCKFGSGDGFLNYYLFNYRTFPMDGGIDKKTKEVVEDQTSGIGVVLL
test_method_notes: NMT enzyme inhibition assay (radiochemical HPLC end-point), Candida NMT
Type: biochemical
test_context: Table V; read-out: IC50 caNMT
pIC50: −log10 of the molar value. Non-standard residues stand in square brackets, D forms with d. Residues, ends and D or L forms follow the SMILES beside them. Aun = NCCCCCCCCCCC(=O)O
reported_property: pIC50

>>> value_observed("Cc1nccn1CCCCc1ccc(C(C)C(=O)N[C@@H](CO)C(=O)N[C@@H](CCCCN)C(=O)N[C@@H](CC2CCCCC2)C(=O)O)cc1 (mixture of isomers)")
6.40
>>> value_observed("Cc1nccn1CCCCc1ccc(CC(=O)N[C@@H](CO)C(=O)N[C@@H](CCCCN)C(=O)N[C@H](CC2CCCCC2)C(=O)O)cc1 [Example 11, bis-trifluoroacetate]")
4.74
>>> value_observed("CC[C@H](C)[C@H](NC(=O)[C@H](CCCCN)NC(=O)[C@H](CO)NC(=O)Cc1ccc(CCCCn2ccnc2C)cc1)C(=O)O [Example 7, bis-trifluoroacetate]")
4.00
>>> value_observed("CC(C)C[C@H](NC(=O)[C@H](CCCCN)NC(=O)[C@H](CO)NC(=O)CCCCCCCCCCN)C(=O)O [Example 4, bis-trifluoroacetate] (H-[Aun]SKL-OH)")
5.17
>>> value_observed("Cc1nccn1CCCCc1ccc(CC(=O)N[C@@H](CO)C(=O)N[C@@H](CCCCN)C(=O)N[C@@H](CC2CCCCC2)C(=O)O)cc1 [Example 2, bis-trifluoroacetate]")
5.85
>>> value_observed("Cc1nccn1CCCCc1ccc(CC(=O)N[C@@H](CO)C(=O)N[C@@H](CCCCN)C(=O)NC(CC(=O)O)C2CCCCC2)cc1 (mixture of isomers)")
5.22

* * *

Test system: C.lusitaniae
test_method_notes: Antifungal susceptibility testing, pH 7.0/35° C., 1x10^3 cells/mL
Type: cell-based
test_context: Clavispora lusitaniae; pH 7.0/35° C./1x10^3 cells/mL, 48 hrs; read-out: EC50 - 48 HRS C.lusi.
reported_property: EC50 (µg/mL)

>>> value_observed("OC(Cn1cncn1)(Cn1cncn1)c1ccc(F)cc1F")
0.6
>>> value_observed("C[C@@H]1[C@H](O)[C@@H](C)/C=C/C=C/C=C/C=C/C=C/C=C/C=C/[C@H](O[C@@H]2O[C@H](C)[C@@H](O)[C@H](N)[C@@H]2O)C[C@@H]2O[C@](O)(C[C@@H](O)C[C@@H](O)[C@H](O)CC[C@@H](O)C[C@@H](O)CC(=O)O[C@H]1C)C[C@H](O)[C@H]2C(=O)O")
0.42

* * *

measured_on: human NMT (Homo sapiens, UniProt P30419)
Construct: made in house; host or cells: E. coli
Sequence (P30419 1-416 isoform P30419-2): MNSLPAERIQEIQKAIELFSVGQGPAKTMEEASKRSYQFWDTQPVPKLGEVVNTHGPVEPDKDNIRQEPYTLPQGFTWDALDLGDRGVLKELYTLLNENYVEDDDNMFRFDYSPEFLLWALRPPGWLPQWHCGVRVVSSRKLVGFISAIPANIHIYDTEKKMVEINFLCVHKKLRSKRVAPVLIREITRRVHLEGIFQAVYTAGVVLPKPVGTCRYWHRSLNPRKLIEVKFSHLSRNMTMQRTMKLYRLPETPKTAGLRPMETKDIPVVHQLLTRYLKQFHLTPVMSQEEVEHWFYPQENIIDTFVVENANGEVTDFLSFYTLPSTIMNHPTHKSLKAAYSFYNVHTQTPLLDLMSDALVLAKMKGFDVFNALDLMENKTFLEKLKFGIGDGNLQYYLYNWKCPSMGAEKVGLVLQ
test_method_notes: NMT enzyme inhibition assay (radiochemical HPLC end-point), human NMT
Format: biochemical
test_context: Table V
pIC50: −log10 of the molar value.
reported_property: pIC50

>>> value_observed("Cc1nccn1CCCCc1ccc(C(C)C(=O)N[C@@H](CO)C(=O)N[C@@H](CCCCN)C(=O)N[C@@H](CC2CCCCC2)C(=O)O)cc1 (mixture of isomers)")
3.07
>>> value_observed("Cc1nccn1CCCCc1ccc(CC(=O)N[C@@H](CO)C(=O)N[C@@H](CCCCN)C(=O)N[C@@H](CC2CCCCC2)C(=O)O)cc1 [Example 2, bis-trifluoroacetate]")
3.09
